Where do these numbers come from? They come from patent US11440906B2.

System: A375 Sensitive cells
EXPERIMENTAL_DETAILS: Viability test, trypan blue exclusion, A375 Sensitive cells
Type: cell-based, human
MEASUREMENT_PARAMETERS: Homo sapiens, A-375; 10 μM, 48 h; viable cells as percentage of DMSO control; read-out: Viab A375 10 μM/ 48 h
RECORDED_ENDPOINT: viability at 10 µM
# output: number + unit

# MOLECULE, viability at 10 µM
rows = [
    ("Nc1nc(Nc2ccccc2SSc2ccccc2Nc2nc(N)nc(-c3ccccc3Cl)n2)nc(-c2ccccc2Cl)n1 [MTF 450]", "49.9%"),
]

Query string: Please state recorded viability at 10 µM (tested on A375 Sensitive cells) of Cc1csc(NC(=N)NC(=N)c2ccncc2)n1 [MTF 291]
Result string: 41.3%

Query string: Please state recorded viability at 10 µM (tested on A375 Sensitive cells) of Cc1nc(NC(=N)NC(=N)c2cccnc2)sc1C [MTF 298]
Result string: 54.7%

====

Tested on: A375 Sensitive cells
EXPERIMENTAL_DETAILS: Viability test, trypan blue exclusion, A375 Sensitive cells
Format: cell-based, human
MEASUREMENT_PARAMETERS: Homo sapiens, A-375; 10 μM, 48 h; viable cells as percentage of DMSO control; read-out: Viab A375 10 μM/ 48 h
Measured viability at 10 µM of individual entries
Give the value, in units of %, as a plain number.

# CPD_SMILES, viability at 10 µM, %
measured = [
    ("COc1ccc(Nc2nc(N)nc(C(Cl)(Cl)Cl)n2)c(SSc2cc(OC)ccc2Nc2nc(N)nc(C(Cl)(Cl)Cl)n2)c1", 16.4),
    ("COc1ccc(-c2nc(N)nc(Nc3ccccc3SSc3ccccc3Nc3nc(N)nc(-c4ccc(OC)cc4)n3)n2)cc1", 8.2),
]

Query string: Field request: viability at 10 µM | item: `Nc1nc(Nc2ccccc2SSc2ccccc2Nc2nc(N)nc(C(Cl)(Cl)Cl)n2)nc(C(Cl)(Cl)Cl)n1`
Result string: 2.6

Query string: Field request: viability at 10 µM | item: `N=C(NC(=N)c1cccnc1)Nc1nc(-c2ccccc2)cs1`
Result string: 100

====

Measured viability at 10 µM of individual entries
Test system: A375 Sensitive cells
EXPERIMENTAL_DETAILS: Viability test, trypan blue exclusion, A375 Sensitive cells
Format: cell-based, human
MEASUREMENT_PARAMETERS: Homo sapiens, A-375; 10 μM, 48 h; viable cells as percentage of DMSO control; read-out: Viab A375 10 μM/ 48 h
Method: […] For trypan blue staining, […] of cells (melanoma and normal human cells) were aseptically transferred to a 1.5 mL clear Eppendorf tube and incubated for 3 min at room temperature with an equal volume of 0.4% trypan blue solution. Viable cells were counted and the results are expressed as the percentage of the value of control cells. […]
Give the value, in units of %, as a plain number.

# COMPOUND, ASSAYED_SYSTEM, viability at 10 µM [%]
records = [
    ("N=C(NC(=N)c1ccncc1)Nc1nc(-c2ccccc2)cs1 [MTF 274]", "A375 Sensitive cells", 89),
]

Query string: Please state recorded viability at 10 µM (tested on A375 Sensitive cells) of Nc1nc(Nc2ccc([N+](=O)[O-])cc2O)nc(C(Cl)(Cl)Cl)n1 [MTF 376]
Result string: 20.9

Query string: Please state recorded viability at 10 µM (tested on A375 Sensitive cells) of Nc1nc(Nc2ccccc2SSc2ccccc2Nc2nc(N)nc(-c3ccc4ccccc4c3)n2)nc(-c2ccc3ccccc3c2)n1 [MTF 443]
Result string: 7.8
